- Test system: MCF7
- Measurement Notes: MTT cell viability assay
- Assay type: cell-based, human
- Condition Notes: 48 h, mean ± SD, read-out: Antiproliferative activity IC50, MCF7
Value Kind: IC50

[Q] // lookup IC50 for NC(=O)NO [HU, Hydroxyurea]
[A] > 100 µM

----------
- Tested on: RR (3H-thymidine incorporation into DNA of SiHa cells)
- Measurement Notes: Inhibition of DNA synthesis (3H-thymidine incorporation) as RR activity
- Type: cell-based
- Condition Notes: Homo sapiens, 48 h treatment
Value Kind: IC50 (µM)
Answers are plain numbers, in µM.

[Q] // lookup IC50 for O=C(CCCCCCC(=O)Nc1cc2cccnc2c2ncccc12)NO [PA]
[A] 9.34

----------
- Measurement Notes: Partition coefficient 1-octanol/water
- Format: physicochemical
- Condition Notes: 1-octanol/water (MOPS buffer), pH 7.4; read-out: log (Kpart7.4), partition coefficient
Value Kind: logD
Give bare numbers.

[Q] // lookup logD for O=C(CCCCCCC(=O)Nc1cc2cccnc2c2ncccc12)NO [PA]
[A] 0.82
